# subjectOfTest: ZFP SBS#768 (synthetic)
# Sequence (chain, as listed by the source): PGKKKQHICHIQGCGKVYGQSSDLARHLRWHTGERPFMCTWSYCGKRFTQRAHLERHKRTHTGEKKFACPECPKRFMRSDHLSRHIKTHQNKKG
# testDescription: EMSA
# conditionDescription: tags: MBP fusion
readoutName: pKd
Remember, pKd is on a log scale: it is -log10 of the molar concentration.

Query: For the binder shown here, GGGGGAGCTG (dsDNA) DNA 1: GGGGGAGCTG DNA 2: CAGCTCCCCC , give the reported pKd.
Response: 5.70
